test system: KARN cells (Jurkat 2C4); assay: cells; assay type: cell-based; conditions: Homo sapiens, Jurkat, read-out: Karn EC50 (nM) 5% NHS, 5% normal human serum; luciferase induction, 100% = 2 μM SAHA

{"columns": ["COMPOUND", "EC50"],
 "data": [
  ["CCC(=O)CCCCC[C@H](NC(=O)C1=NOC2(CCN(C)CC2)C1)c1ncc(-c2cc3ccc(=O)n(C)c3cc2F)o1 [Compound 386]", "1060 nM"],
  ["CCC(=O)CCCCC[C@H](NC(=O)C1=NOC2(CCN(C(C)=O)CC2)C1)c1ncc(-c2ccccc2)[nH]1 [Compound 380]", "2410 nM"],
  ["CCC(=O)CCCCC[C@H](NC(=O)[C@H]1CC[C@@]2(CC1)OC(=O)c1ncccc12)c1ncc(-c2ccccc2)[nH]1 [Compound 374]", "5400 nM"],
  ["CCC(=O)CCCCC[C@H](NC(=O)[C@H]1CC[C@@]2(CC1)OC(=O)c1cccnc12)c1nnc(-c2cc3ccccc3nc2OC)o1 [Compound 366]", "5360 nM"],
  ["CCC(=O)CCCCC[C@H](NC(=O)[C@H]1CC12CCN(C)CC2)c1ncc(-c2ccc(F)cc2)[nH]1 [Compound 280]", "919 nM"],
  ["CCC(=O)CCCCC[C@H](N)c1ncc(-c2cc3ccc(=O)n(C)c3cc2OC)o1 [Compound 224]", "6970 nM"],
  ["CCC(=O)CCCCC[C@H](NC(=O)[C@H]1CC12CCN(CC1CC1)CC2)c1ncc(-c2ccc3nc(C)ccc3c2)[nH]1 [Compound 393]", "22 nM"],
  ["CCC(=O)CCCCC[C@H](NC(=O)CC1CC2(C1)CN(C)C2)c1ncc(-c2cc3ccccc3nc2O)[nH]1 [Compound 326]", "3820 nM"],
  ["CCC(=O)CCCCC[C@H](NC(=O)[C@H]1CC12CCN(CC1CC1)CC2)c1ncc(-c2cc3ccc(=O)n(C)c3cc2F)o1 [Compound 400]", "557 nM"],
  ["CCC(=O)CCCCC[C@H](NC(=O)[C@H]1CC12CCN(C)CC2)c1[nH]c(-c2ccc(F)cc2)nc1Cl [Compound 240]", "346 nM"],
  ["CCC(=O)CCCCC[C@H](NC(=O)[C@H]1CC12CCN(C)CC2)c1ncc(-c2cc3ccc(N(C)C)nc3cc2OC)o1 [Compound 406]", "279 nM"],
  ["CCC(=O)CCCCC[C@H](NC(=O)[C@H]1CCC12CCN(CC)CC2)c1ncc(-c2cc3ccccc3nc2OC)[nH]1 [Compound 338]", "111 nM"],
  ["CCC(=O)CCCCC[C@H](NC(=O)[C@H]1CC12CCN(C(C)C)CC2)c1ncc(-c2cc3ccccc3nc2OC)[nH]1 [Compound 337]", "57 nM"],
  ["CCCC(=O)CCCCC[C@H](N)c1ncc(-c2cc3ccc(C)nc3cc2OC)[nH]1 [Compound A30]", "5610 nM"]
]}
